# System: MDA-MB-231
# experiment_summary: Growth inhibition of human MDA-MB-231 cells assessed as cell growth at 0.1 uM incubated for 48 hrs by sulforhodamine B assay relative to control
# Assay type: functional
# condition_context: read-out: Activity
value_type: growth at 0.1 µM

INSERT INTO measurements (smiles_record, experimental_target, value_type, recorded_measurement) VALUES
  ('Nc1c(C(=O)Nc2ccccc2)sc2nc3c(cc12)CN(Cc1ccccc1)CC3', 'MDA-MB-231', 'growth at 0.1 µM', '100%'),
  ('CCc1cccc(C)c1NC(=O)c1sc2nc3c(cc2c1N)C(=O)CCC3', 'MDA-MB-231', 'growth at 0.1 µM', '100%'),
  ('Cc1ccc(NC(=O)c2sc3nc4c(cc3c2N)C(=O)CCC4)cc1C', 'MDA-MB-231', 'growth at 0.1 µM', '95%');
